- Measured target: recombinant human FLAP protein (Homo sapiens, UniProt P20292)
- Construct: made in house; host or cells: Sf9 insect cells (100,000×g membrane pellet used)
- Test: FLAP binding assay (SPA, displacement of [125I]L-691,831)
- Run conditions: membranes of sf9 cells expressing recombinant human FLAP; [125I]L-691,831 probe; read-out: FLAP binding IC50
pIC50: −log10 of the molar value.
Reported pIC50 values are given for each entry in this list.
Property name: pIC50

>>> print(df.to_string())
                                   molecule  value_measured
0  COCCn1cc(-c2nc(C(C)(c3ccc(-c4cnc(N)nc4)cc3)C(C)C)no2)cn1 (stereo not shown)            8.47
1  CC(C)C(C)(c1ccc(-c2cnc(N)nc2)cc1)c1noc(C2CCN(C(=O)OC(C)(C)C)CC2)n1 (stereo not shown)            7.34
2  COCCn1cc(-c2nc([C@@](C)(c3ccc(-c4cnc(N)c(C)n4)cc3)C3CC3)no2)cn1            7.89
3  CC(C)C(C)(c1ccc(-c2cnc(N)nc2)cc1)c1noc(C2CCNCC2)n1 (stereo not shown)            6.72
4  CC(C)C(C)(c1ccc(-c2cnc(N)nc2)cc1)c1noc(CC(C)(C)C(=O)O)n1 (stereo not shown)            6.62
5  CC(C)C(C)(c1ccc(-c2cnc(N)nc2)cc1)c1noc(N2CCN(C(N)=O)CC2)n1 (stereo not shown)            7.64
6  CC(C)C(C)(c1ccc(-c2cnc(N)nc2)cc1)c1noc(-c2ccn[nH]2)n1 (stereo not shown)            8.24
7  CC(C)C(C)(c1ccc(-c2cnc(N)nc2)cc1)c1noc(-c2cnn(C(C)(C)C(=O)O)c2)n1 (stereo not shown)            8.05
8  Cc1nc(N)ccc1-c1ccc(C(C)(c2noc(-c3cnn(CC(=O)N(C)C)c3)n2)C2CC2)cc1 (stereo not shown)            7.60
9  C[C@@](c1ccc(-c2cnc(N)nc2)cc1)(c1noc(-c2cnn(CCN)c2)n1)C1CC1            8.23

====

Reported IC50 values are given for each entry in this list.
- Measured target: recombinant human FLAP protein (Homo sapiens, UniProt P20292)
- Construct: made in house; host or cells: Sf9 insect cells (100,000×g membrane pellet used)
- Sequence (P20292 1-161): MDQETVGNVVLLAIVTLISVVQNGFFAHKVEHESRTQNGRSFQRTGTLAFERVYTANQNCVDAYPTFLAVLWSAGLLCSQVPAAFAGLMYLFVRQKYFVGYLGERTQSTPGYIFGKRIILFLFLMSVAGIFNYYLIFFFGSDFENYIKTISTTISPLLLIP
- Test: FLAP binding assay (SPA, displacement of [125I]L-691,831)
- Run conditions: membranes of sf9 cells expressing recombinant human FLAP; [125I]L-691,831 probe; read-out: FLAP binding IC50
- Protocol: Assessment of Biological Properties 1. Binding Assay Compounds are assessed for the ability to bind to FLAP in a binding assay that measures compound-specific displacement of an iodinated (^125I) FLAP inhibitor via a Scintillation Proximity Assay format (adapted from S. Charleson et al., Mol. Pharmacol., 1992, 41, 873-879). Cell pellets produced from sf9 insect cells expressing recombinant human FLAP protein are resuspended in buffer A [15 mM Tris-HCl (pH 7.5), 2 mM MgCl2, 0.3 mM EDTA, 1 mM PMSF]. […]
Property name: IC50

>>> df
                                   molecule                           measured_target  value_measured
0  CC(C)C(C)(c1ccc(-c2cnc(N)nc2)cc1)c1noc(-c2cncs2)n1 (stereo not shown) [Example 130]  recombinant human FLAP protein (Homo sapiens, UniProt P20292)          1.4 nM
1  CC(C)(c1ccc(-c2cnc(N)nc2)cc1)c1noc(-c2ccc(NCCS(C)(=O)=O)nc2)n1 [Example 71]  recombinant human FLAP protein (Homo sapiens, UniProt P20292)           17 nM
2  CO[C@H]1CCN(C(=O)Cn2cc(-c3nc([C@@](C)(c4ccc(-c5cnc(N)nc5)cc4)C4CC4)no3)cn2)C1 [Example 221]  recombinant human FLAP protein (Homo sapiens, UniProt P20292)          6.2 nM
3  Cc1cc(-c2ccc([C@](C)(c3noc(-c4cnn(CC(C)(C)O)c4)n3)C3CC3)cc2)cnc1N [Example 179]  recombinant human FLAP protein (Homo sapiens, UniProt P20292)          4.6 nM
